Tested on: Plasmodium falciparum
Experiment: GSK_TCMDC: Inhibition of Plasmodium falciparum 3D7 in whole red blood cells, using parasite LDH activity as an index of growth. Test compounds present at 2uM
Assay type: functional

COMPOUND	Inhibition
CC(=O)N(Cc1cccc(-c2cccc(CNCCc3ccccc3)c2)c1)C1CCN(Cc2ccccc2)CC1.O=C(O)C(F)(F)F	100%
Cc1ccc(/C=C/C(=O)NC2CCC(CN3CCC(c4c[nH]c5ccccc45)CC3)CC2)cc1C (stereo not given)	100%
CCCc1c(C(=O)NC2CCC(CN3CCC(c4c[nH]c5ccccc45)CC3)CC2)cnn1-c1ccccc1 (stereo not given)	92%
Cc1cccc(C(=O)Nc2ccnc(N(C)C3CCN(CC(C)C)CC3)c2)c1.O=C(O)C(F)(F)F	95%
CCCCC1(NC(=O)[C@H](CC(C)C)Nc2ccc(C#N)c3ccccc23)CCCCC1.O=C(O)C(F)(F)F	96%
CC(C)CN1CCC(N(C)c2cc(NC(=O)c3cccc(F)c3)ccn2)CC1.O=C(O)C(F)(F)F	97%
CC[C@H]1CN2CC[C@H]1C[C@H]2[C@@H](O)c1cc(OCCCN(C)C)nc2ccc(OC)cc12	99%
Cc1[nH]c2ccc(O)cc2c1C1CCN(CC2CCN(C(=O)/C=C/c3ccc(Cl)c(Cl)c3)CC2)CC1	99%
CCOc1ccc2nccc([C@@H](O)[C@@H]3C[C@@H]4CCN3C[C@@H]4CC)c2c1.Cl [ETHYLHYDROCUPREINE HYDROCHLORIDE]	98%
Oc1ccc(CN2CCN(CCOC(c3ccccc3)c3ccc(Cl)cc3)CC2)cc1Cl (stereo not given)	98%
O=C(NC1CCN(CC2(c3ccc(Cl)cc3)CCC2)CC1)c1cscn1	98%
COc1ccc(CCNCc2ccc3nc(N)c(C)cc3c2)cc1.Cl	100%
Cc1[nH]c2ccccc2c1C1=CCN(CCCCCC23CCCc4cccc(c42)NC3=O)CC1 (stereo not given)	94%
CC[C@H]1CN2CC[C@H]1C[C@H]2[C@H](O)c1cc(-c2ccc(C)cc2)nc2ccc(OC)cc12.Cl	99%
Cc1[nH]c2cc(F)ccc2c1C1=CCN(CCCCC2(C)C(=O)Nc3ccccc32)CC1 (stereo not given)	93%
O=C(CCCCCc1ccccc1)NC1CCC(CN2CCC(c3c[nH]c4ccccc34)CC2)CC1 (stereo not given)	86%
CNCCCN(C)C(=O)Oc1c(Br)c(C)nc(C)c1-c1ccc(Oc2ccc(OC(F)(F)F)cc2)cc1.Cl	96%
CC[C@H]1CN2CC[C@@H]1C[C@H]2[C@H](O)c1cc(N2CCC(O)(c3ccccc3)CC2)nc2ccc(OC)cc12	100%
CN1CC(c2ccc(Cl)c(Cl)c2)OC1=N.I (stereo not given)	99%
CC(Cc1ccc(OCCOc2ccccc2)cc1)NCC(O)c1cccc(Cl)c1 (stereo not given)	99%
O=C(NC1CCC(CN2CCC(c3c[nH]c4ccccc34)CC2)CC1)c1cc2cccc([N+](=O)[O-])c2[nH]1 (stereo not given)	100%
O=C(Nc1cc(C(F)(F)F)cc(C(F)(F)F)c1)N1CCC(CN2CCC(c3c[nH]c4ccccc34)CC2)CC1	100%
CC(Cc1ccc(-c2nc3ccccc3[nH]2)cc1)NCC(O)c1cccc(C(F)(F)F)c1 (stereo not given)	97%
CN1CC=C(c2c[nH]c3ccc(C(=O)c4nccs4)cc23)CC1	89%
CCCCCC(C)C(C)c1cc(O)c2c(c1)OC1(C(C)C)CC(O)C(C)C2C1 (stereo not given)	93%
CC(C)CNCc1ccc(-c2cccc(CN(C(=O)NC3CCCCC3)C3CCN(Cc4ccccc4)CC3)c2)cc1.O=C(O)C(F)(F)F	98%
Cc1[nH]c2ccc(O)cc2c1C1CCN(CC2CCC(NC(=O)/C=C/c3c(Cl)cccc3Cl)CC2)CC1 (stereo not given)	100%
O=C(NC1CCC(CN2CCC(c3c[nH]c4ccccc34)CC2)CC1)c1csc(-c2ccc(C(F)(F)F)cc2Cl)n1 (stereo not given)	99%
O=C(/C=C/c1cc([N+](=O)[O-])ccc1Cl)NC1CCC(CN2CCC(c3c[nH]c4ccccc34)CC2)CC1 (stereo not given)	100%
Cc1[nH]c2ccccc2c1C1=CCN(CCCCC2(C)C(=O)Nc3cccc(F)c32)CC1 (stereo not given)	95%
Cc1[nH]c2ccccc2c1C1=CCN(CCCCCNC(=O)/C=C/c2ccc(Cl)c(Cl)c2)CC1	97%
COc1cccc(CN2CCC(CCOC(c3ccccc3)c3ccccc3)CC2)c1O	97%
CC(C)CCNC(=O)c1cc(C(=O)c2cc(F)ccc2O)cn(CCC(C)C)c1=O	100%
COc1cccc(C(=O)C2CC2CN2CC=C(c3c[nH]c4cccc(Br)c34)CC2)c1 (stereo not given)	96%
OC(CNC1CCCCC1)c1ccc(Cl)c(Cl)c1 (stereo not given)	99%
